Target: T1, HLA-DRB3 (HLA-DRB3*01:01) (human)
T1 construct: mature; purified from homozygous EBV-transformed lymphoblastoid cells with antibody L243
Assay: competition ELISA vs biotin-LOL 191-210
No end group written: not given here.
Consider the following binders; for each one, report its relative affinity.
Give bare numbers.

Hi, could you look up relative affinity for each item in my list?
1. PQLNSALVQDLAKAV-NH2 [CCNB1 416-430]
2. EPILVDTASPSPMET-NH2 [CCNB1 118-132]
3. AKYLMELTMLDYDMV-NH2 [CCNB1 323-337]
4. HTLAKYLMELTMLDY-NH2 [CCNB1 320-334]

1. 3
2. 12
3. 41
4. 24

Hi, could you look up relative affinity for each item in my list?
1. HQIRQMEMKILRALN-NH2 [CCNB1 280-294]
2. NSALVQDLAKAVAKV-NH2 [CCNB1 419-433]

1: 53; 2: 7
